# assayed system: recombinant human calcium channel α1B-1α2b on transfected HEK293 cells (human)
# Sequence (B1AQK5 whole entry, chain 1 of 2): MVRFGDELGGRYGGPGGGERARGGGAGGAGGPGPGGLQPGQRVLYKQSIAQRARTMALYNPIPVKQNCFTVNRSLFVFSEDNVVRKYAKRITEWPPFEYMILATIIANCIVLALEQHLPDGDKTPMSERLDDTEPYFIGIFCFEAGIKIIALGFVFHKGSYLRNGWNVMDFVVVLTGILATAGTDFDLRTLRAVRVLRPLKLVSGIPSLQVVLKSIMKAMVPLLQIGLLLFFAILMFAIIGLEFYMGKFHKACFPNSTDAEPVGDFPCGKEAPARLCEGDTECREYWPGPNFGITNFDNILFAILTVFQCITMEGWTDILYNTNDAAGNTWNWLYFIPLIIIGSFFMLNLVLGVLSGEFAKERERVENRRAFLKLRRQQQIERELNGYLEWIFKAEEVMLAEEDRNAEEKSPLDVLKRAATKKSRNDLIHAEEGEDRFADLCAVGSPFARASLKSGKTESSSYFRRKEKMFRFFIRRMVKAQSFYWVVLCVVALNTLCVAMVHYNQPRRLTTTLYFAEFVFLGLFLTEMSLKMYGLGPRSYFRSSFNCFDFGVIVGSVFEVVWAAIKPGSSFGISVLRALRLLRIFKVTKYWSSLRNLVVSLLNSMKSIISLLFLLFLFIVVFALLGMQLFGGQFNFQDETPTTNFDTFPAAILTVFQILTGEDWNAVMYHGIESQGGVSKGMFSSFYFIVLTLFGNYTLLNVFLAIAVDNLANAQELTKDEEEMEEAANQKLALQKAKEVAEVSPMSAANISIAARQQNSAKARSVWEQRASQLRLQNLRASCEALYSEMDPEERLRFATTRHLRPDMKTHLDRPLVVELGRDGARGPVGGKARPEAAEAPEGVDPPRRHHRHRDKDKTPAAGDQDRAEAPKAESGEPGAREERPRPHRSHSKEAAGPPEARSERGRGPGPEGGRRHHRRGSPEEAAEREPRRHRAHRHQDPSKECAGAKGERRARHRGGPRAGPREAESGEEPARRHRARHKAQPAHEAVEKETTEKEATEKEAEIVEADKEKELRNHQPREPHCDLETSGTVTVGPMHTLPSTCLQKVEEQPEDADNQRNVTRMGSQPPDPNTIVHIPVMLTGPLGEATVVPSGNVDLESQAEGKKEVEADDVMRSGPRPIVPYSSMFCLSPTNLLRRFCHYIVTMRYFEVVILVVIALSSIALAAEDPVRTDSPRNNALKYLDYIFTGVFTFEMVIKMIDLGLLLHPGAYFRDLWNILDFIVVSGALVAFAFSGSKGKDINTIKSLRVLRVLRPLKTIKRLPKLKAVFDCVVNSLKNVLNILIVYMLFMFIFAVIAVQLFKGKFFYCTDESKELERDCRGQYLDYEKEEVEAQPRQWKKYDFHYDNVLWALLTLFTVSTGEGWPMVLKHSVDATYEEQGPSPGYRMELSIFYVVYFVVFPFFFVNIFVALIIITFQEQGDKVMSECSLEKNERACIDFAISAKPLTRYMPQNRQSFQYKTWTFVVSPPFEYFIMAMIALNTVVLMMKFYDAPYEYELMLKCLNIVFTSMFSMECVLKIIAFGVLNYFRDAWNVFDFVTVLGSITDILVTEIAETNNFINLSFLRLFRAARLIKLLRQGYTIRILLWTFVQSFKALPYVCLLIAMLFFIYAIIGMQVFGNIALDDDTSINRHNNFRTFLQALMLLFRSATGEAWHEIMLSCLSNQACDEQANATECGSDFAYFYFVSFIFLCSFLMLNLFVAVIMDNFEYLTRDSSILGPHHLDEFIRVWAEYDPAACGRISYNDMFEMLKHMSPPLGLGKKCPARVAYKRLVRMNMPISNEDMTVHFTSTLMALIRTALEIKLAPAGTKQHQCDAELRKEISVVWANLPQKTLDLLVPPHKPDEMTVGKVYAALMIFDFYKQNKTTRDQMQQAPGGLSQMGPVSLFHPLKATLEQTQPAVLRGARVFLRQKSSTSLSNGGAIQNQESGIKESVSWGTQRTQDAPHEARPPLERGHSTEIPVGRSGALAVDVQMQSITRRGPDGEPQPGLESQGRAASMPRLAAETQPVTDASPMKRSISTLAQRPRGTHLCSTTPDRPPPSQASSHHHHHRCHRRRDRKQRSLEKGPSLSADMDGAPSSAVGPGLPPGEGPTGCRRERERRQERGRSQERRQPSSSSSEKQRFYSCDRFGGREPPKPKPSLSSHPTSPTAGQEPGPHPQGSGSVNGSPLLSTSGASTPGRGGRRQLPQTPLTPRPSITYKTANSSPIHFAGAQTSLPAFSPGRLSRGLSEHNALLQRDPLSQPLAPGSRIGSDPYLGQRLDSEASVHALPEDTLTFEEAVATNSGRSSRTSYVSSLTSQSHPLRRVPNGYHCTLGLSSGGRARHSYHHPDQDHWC
# Sequence (P54289 whole entry, chain 2 of 2, further chain): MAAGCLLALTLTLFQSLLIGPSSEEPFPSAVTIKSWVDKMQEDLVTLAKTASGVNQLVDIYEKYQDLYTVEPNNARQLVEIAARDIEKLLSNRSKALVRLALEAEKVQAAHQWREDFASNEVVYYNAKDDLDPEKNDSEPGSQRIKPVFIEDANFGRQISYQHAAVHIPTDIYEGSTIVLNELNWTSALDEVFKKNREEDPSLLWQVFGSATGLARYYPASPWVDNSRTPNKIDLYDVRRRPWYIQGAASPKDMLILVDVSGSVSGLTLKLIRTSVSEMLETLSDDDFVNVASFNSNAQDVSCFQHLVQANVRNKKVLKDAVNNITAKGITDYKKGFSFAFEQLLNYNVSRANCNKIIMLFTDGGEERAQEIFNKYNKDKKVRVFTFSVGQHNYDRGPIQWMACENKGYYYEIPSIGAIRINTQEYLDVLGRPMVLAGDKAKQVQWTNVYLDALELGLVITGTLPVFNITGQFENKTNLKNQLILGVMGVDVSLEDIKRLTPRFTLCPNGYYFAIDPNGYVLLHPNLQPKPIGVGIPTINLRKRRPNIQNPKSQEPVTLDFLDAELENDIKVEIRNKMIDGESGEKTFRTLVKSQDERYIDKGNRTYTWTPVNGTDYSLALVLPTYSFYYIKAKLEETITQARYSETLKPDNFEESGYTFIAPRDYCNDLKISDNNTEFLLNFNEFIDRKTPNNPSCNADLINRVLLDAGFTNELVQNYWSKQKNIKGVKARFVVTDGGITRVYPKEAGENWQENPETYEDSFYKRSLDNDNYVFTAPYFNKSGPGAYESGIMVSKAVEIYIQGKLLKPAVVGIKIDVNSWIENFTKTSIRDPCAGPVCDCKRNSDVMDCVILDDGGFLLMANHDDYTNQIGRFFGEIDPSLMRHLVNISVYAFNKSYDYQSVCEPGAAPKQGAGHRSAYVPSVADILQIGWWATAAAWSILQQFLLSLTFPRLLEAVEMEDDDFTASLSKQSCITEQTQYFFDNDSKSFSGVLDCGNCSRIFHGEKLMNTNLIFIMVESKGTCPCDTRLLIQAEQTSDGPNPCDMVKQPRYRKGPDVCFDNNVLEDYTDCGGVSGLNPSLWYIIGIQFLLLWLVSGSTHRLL
pKd: −log10 of the molar value.
test readout: pKd

{"binder": "CKSPGSSCSPTSYNCCRSCNPYTKRCY (modifications not checked) [125I-ω-CgTx GVIA, P01522 46-72]", "observed": 10.07}
